# TEST_DETAILS: Leishmania major promastigote growth inhibition, primary screen (AID 1063);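 further: promastigotes grown with compound for 44 hours at 28 °C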
# CONDITIONS: Leishmania major promastigotes, resazurin fluorescence viability; at 10 µM
Among all 200,000 compounds or so, about 18,000 (9%) were called active. No stated cut-off is given here; in the data, active means inhibition above about 50%; inactive means the rest. The sample holds actives, similar compounds and a random draw of the others, so the mix is not that of the screen.
Labels: 1 (yes) = active, 0 (no) = inactive

| COMPOUND | CLASS_ASSIGNMENT |
| --- | --- |
| CSCC(=O)N1CCCC(C(=O)c2cc(F)ccc2F)C1 (configuration not stated) | 0 (no) |
| Cc1cccc(OCC(O)CN2CCN(CCN3C(=O)c4cccc5cccc(c45)C3=O)CC2)c1C (configuration not stated) | 1 (yes) |
| COCCn1c(SCC(=O)Nc2ccc3c(c2)CCC3)nc2ccccc2c1=O | 1 (yes) |
| COc1ccc(/C=C/CN2CCCC(C(=O)c3cc(F)ccc3F)C2)cc1 (configuration not stated) | 1 (yes) |
| Cc1ccc2nc(Nc3ncc4c(n3)CC(C)(C)CC4=O)nc(C)c2c1 | 0 (no) |
| CCC(=O)NC(=S)Nc1ccc(NC(=O)c2ccco2)c(Cl)c1 | 0 (no) |
| COc1cc(/C=C/C2=CC(C)(C)NC(=S)N2)cc(OC)c1OC | 0 (no) |
| Cc1nnnn1/C(=C\c1ccccc1)C(=O)OCC(=O)N1CC2(C)CC1CC(C)(C)C2 (configuration not stated) | 1 (yes) |
| O=C(Nc1ccccc1)Nc1nc2ccccc2s1 | 0 (no) |
| CC(=O)N1C(C)c2ccccc2C(C)(C)CC12CCCCC2 (configuration not stated) | 0 (no) |
| CC(C)c1ccc(/C=C/C(=O)NNC(=O)c2cccnc2)cc1 | 0 (no) |
| CCSC1=NCCN1C(=O)c1ccc(S(=O)(=O)N(CC)CC)cc1 | 0 (no) |
| CCc1nnc(NC(=O)CSc2nc3ccccc3c(=O)n2CCCOC)s1 | 0 (no) |
| O=[N+]([O-])c1ccccc1N/N=C1\CCc2ccccc21 | 0 (no) |
| CC(=O)NCCn1c(SCC(=O)Nc2ccc(C)cc2)nc2ccccc2c1=O | 0 (no) |
| Cc1ccc2cc(CN(c3ccc(C)c(C)c3)S(C)(=O)=O)c(=O)[nH]c2c1 | 0 (no) |
| CCN(CC)P(=O)(Nc1ccc(SC(F)F)cc1)c1ccc(N(C)C)cc1NC(=O)c1ccco1 (configuration not stated) | 1 (yes) |

---

# TEST_DETAILS: Leishmania major promastigote growth inhibition, primary screen (AID 1063);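 further: promastigotes grown with compound for 44 hours at 28 °C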
# CONDITIONS: Leishmania major promastigotes, resazurin fluorescence viability; at 10 µM
Out of some 200,000 compounds screened, about 18,000 (9%) were called active. Cut-off read from the data, not from the text of the source: active = inhibition above about 50%; inactive = the rest. Shown is part of a subset that was picked to be rich in actives.
Labels: True (active), False (inactive)

| MOLECULE | CLASS_ASSIGNMENT |
| --- | --- |
| O=C(N/N=C/c1ccc(Cl)cc1)c1nc2ccc([N+](=O)[O-])cc2c(=O)[nH]1 | False |
| Fc1ccccc1N=C1Nc2cccc3cccc1c23 | False |
| CCCCc1nc(NCc2ccccc2)c(C#N)c2c1CCCC2 | False |
| O=C(CCSc1ccccc1)N1CCN(c2ccccc2F)CC1 | False |
| CCN(CC(=O)NCc1cccs1)S(=O)(=O)c1ccc(NC(C)=O)cc1 | False |
| COc1cccc(CN2CCNC(=O)C2CC(=O)N(C)CCc2ccccn2)c1 (configuration not stated) | False |
| CCc1cccc(OC2OC(CO)C(O)C(O)C2NC(C)=O)c1 (configuration not stated) | False |
| O=C(CN1CCN(S(=O)(=O)/C=C/c2ccccc2)CC1)Nc1ccc(N2CCOCC2)cc1 | False |
| COc1ccc(F)cc1C(=O)C1CCCN(C(=O)CCc2ccccn2)C1 (configuration not stated) | False |
| c1ccc(C2=Nc3cccc4cccc(c34)N2)cc1 | False |
| COc1cccc(-c2nnc(NC(=O)c3ccc(S(=O)(=O)N(CC(C)C)CC(C)C)cc3)o2)c1 | True |
| O=C(CC(=O)N/N=C\c1ccc(F)cc1)NCCc1ccccc1 | False |
| Cc1cc(C)nc(NS(=O)(=O)c2ccc(N/C=C\C(=O)c3cccs3)cc2)n1 | False |
| CC(=O)NC1C(Oc2ccc(C)cc2)OC2COC(c3ccco3)OC2C1O (configuration not stated) | True |
| C/C(N)=C(/C#N)C(=O)COC(=O)c1cc(-c2ccc(C)cc2)nc2ccccc12 | False |
| Cn1nc(-c2ccc(N3CCOCC3)c(NC(=O)c3ccccc3)c2)c2ccccc2c1=O | True |
| CCOC(=O)C1CCN(C(=O)Cn2cc(C#N)c3ccccc32)CC1 | False |
| O=C(Nc1cc(-c2nn(CC(=O)N3CCCCC3)c(=O)c3ccccc23)ccc1N1CCOCC1)c1ccc(Cl)cc1 | False |
| CCc1ccc(-n2c(=S)sc3c(=O)n(-c4ccccc4OC)c(=S)[nH]c32)cc1 | False |
| CCc1c(SCCC(=O)O)nc2ccccc2c1C | False |
| COc1ccc(S(=O)(=O)N2CCOCC2)cc1C(=O)Nc1nc2ccccc2s1 | False |
| CCC(=O)N(Cc1cc2cc(OC)ccc2[nH]c1=O)c1ccccc1C | False |
| Nc1c(C(=O)NCc2ccccc2)nnn1Cc1cccc(Cl)c1 | False |
| Cc1nc(NCCN)c(C#N)c2c1COC(C)(C)C2 | False |
| C/C(N)=C(/C#N)C(=O)COC(=O)c1cc(-c2cccc(Br)c2)nc2ccccc12 | True |
| Cc1[nH]c2ccccc2c1/C=C(/C#N)C(=O)NC(C)C | False |
| O=C1Nc2cc(Cl)c(Cl)cc2N(O)N1c1ccccc1Cl | False |

---

# TEST_DETAILS: Leishmania major promastigote growth inhibition, primary screen (AID 1063);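 further: promastigotes grown with compound for 44 hours at 28 °C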
# CONDITIONS: Leishmania major promastigotes, resazurin fluorescence viability; at 10 µM; hits give high values
Out of some 200,000 compounds screened, about 18,000 (9%) were called active. For the sample, actives were picked, then their nearest neighbours and some compounds at random.

| COMPOUND | inhibition [%] |
| --- | --- |
| O=Cc1ccc(OCc2cn3ccccc3n2)cc1 | -8.44 |
| CC(C)Nc1nnc(SCC(=O)/C=C2\N(C)c3ccccc3C2(C)C)s1 | 2.98 |
| O=C(CNCc1ccc(Cl)cc1)Nc1cccc(C(=O)O)c1 | 1.28 |
| Cc1cc(/C=C2\SC(=Nc3ccc(N4CCOCC4)cc3)N(C)C2=O)c(C)n1-c1cccnc1 | 0.4 |
| CCc1nnc(NS(=O)(=O)c2ccc(N=Cc3c(C)[nH]n(-c4ccc(C)cc4)c3=O)cc2)s1 | -3.52 |
| CCOc1ccc(Nc2oc(Cc3ccccc3)nc2C#N)cc1 | 99.7 |
| Cc1cccc(C)c1NC(=O)C(c1ccccc1)N1CC(=O)Nc2ccccc21 (centres undefined) | 57.2 |
| CN1/C(=C\C(=O)c2cccnc2Cl)C(C)(C)c2ccccc21 | 55.5 |
| COc1ccc(C)cc1S(=O)(=O)N(CC(=O)Nc1cccc([N+](=O)[O-])c1)c1ccc(C)cc1 | 30.9 |
| O=C(COC(=O)C1CCCCC1)Nc1ccc([N+](=O)[O-])cc1 | -5.31 |
| N#Cc1nc(Cc2ccccc2)oc1NCCc1ccccc1 | 0.9 |
| CN1C(=O)/C(=N/OC(=O)c2ccccc2Br)c2ccccc21 | -16.5 |
| Cc1ccc(S(=O)(=O)N2CC(=O)Nc3ccccc32)cc1C | 3.05 |
| CCOc1ccc(CCN2C(=O)c3cccnc3C2=O)cc1OCC | -10.8 |
| CCN1CN(Cc2ccccc2)CNC1=S | -5.52 |
| Cc1ccc(-n2c(C)cc(/C=C(\C#N)C(=O)NCC3CCCO3)c2C)cc1 (centres undefined) | -2.28 |
| N#Cc1nc(COc2ccc(-c3ccccc3)cc2)oc1NCc1cccnc1 | 7.49 |
| COc1cc(SC#N)ccc1N=Cc1c(C)[nH]n(-c2ccc(C)cc2)c1=O | 100 |
| COC(=O)Cc1ccc(OCC(=O)Nc2ccc(OC(F)(F)F)cc2)cc1 | 54.1 |
| CS(=O)(=O)c1ccc2nc(NC(=O)c3ccc(Cl)nc3)sc2c1 | 3.2 |
| CCCCc1ccc(NC(=S)NCCCN2CCOCC2)cc1 | 32.5 |
| C=CCN(C(=O)c1cc(C)cc(C)c1)C1(C(=O)Nc2ccccc2)CCN(C(C)C)CC1 | 6.23 |
| CC(C)(C)NC(=O)CN1CCC(NC(=O)C23CC4CC(CC(C4)C2)C3)CC1 | 3.92 |
| C/C(=C\C(=O)c1cccnc1)Nc1ccc(C)c(C)c1 | 20.1 |
| O=C(CSc1nnc2ccc(-c3ccncc3)nn12)N1CCCCC1 | 20.4 |
| CCOC(=O)c1sc(-c2cccc([N+](=O)[O-])c2)cc1N | 4.06 |
| O=C(COC(=O)c1ccco1)NCc1ccc(Cl)cc1 | -4.2 |
| CCC(C)(C)NC(=O)/C=C/c1cc(OC)c(OC)c(S(=O)(=O)N2CCc3ccccc32)c1 | -8.31 |
| Cc1cc(/C=C2/NC(=O)NC2=O)c(C)n1-c1cccnc1 | 60.6 |
